Test system: HOP-62
Assay: NCI one-dose assay
Assay type: cell-based
Conditions: Homo sapiens, HOP-62, Non-small cell lung cancer, read-out: Cell growth inhibition %
property: inhibition at 10 µM

INSERT INTO assay_data (compound, result) VALUES
  ('C=CCn1c(SCC(=O)c2ccc(Br)cc2)nnc1-c1c[nH]c2ccccc12 [Compound 6d]', '-2.78%'),
  ('C=CCn1c(SCC(=NO)c2ccc(OC)cc2)nnc1-c1c[nH]c2ccccc12 [Compound 7b]', '2%'),
  ('C=CCn1c(SCC(=O)c2ccc(OC)cc2)nnc1-c1c[nH]c2ccccc12 [Compound 6b]', '6.07%'),
  ('COc1ccc(/C(CSc2nnc(-c3c[nH]c4ccccc34)n2-c2ccccc2)=N/O)cc1 [Compound 7g]', '55%');
